In what follows, each item is paired with its IC50 for JNK1 (Homo sapiens (Human)).

| mol smiles | test system | IC50 |
| --- | --- | --- |
| CCc1n[nH]c(-c2c(Cl)csc2NC(=O)CN2C(=O)CCc3ncccc32)n1 | JNK1 (Homo sapiens (Human)) | < 100 nM |
| O=C(Cn1c(=O)ccc2cc(C(F)(F)F)ccc21)Nc1scc(Cl)c1-c1ncn[nH]1 | JNK1 (Homo sapiens (Human)) | < 100 nM |
| COCn1nnnc1-c1ccsc1NC(=O)Cc1ccc(OC)cc1 | JNK1 (Homo sapiens (Human)) | 100 to 10000 nM |
| Cn1ncnc1-c1sccc1NC(=O)Cc1cccc2ccccc12 | JNK1 (Homo sapiens (Human)) | > 50000 nM |
| O=C(Cn1c(=O)ccc2c(C(F)(F)F)cccc21)Nc1scc(Br)c1-c1ncn[nH]1 | JNK1 (Homo sapiens (Human)) | < 100 nM |
| COc1ccc(CC(=O)Nc2ccsc2-c2c[nH]cn2)cc1 | JNK1 (Homo sapiens (Human)) | > 10000 nM |
| Cc1n[nH]c(-c2c(C)csc2NC(=O)CN2C(=O)CCc3ccccc32)n1 | JNK1 (Homo sapiens (Human)) | < 100 nM |
| O=C(Cc1cccc2ccccc12)Nc1ccsc1-c1nnco1 | JNK1 (Homo sapiens (Human)) | 100 to 10000 nM |
| O=C(CN1C(=O)CCc2ncccc21)Nc1scc(Br)c1-c1ncco1 | JNK1 (Homo sapiens (Human)) | < 100 nM |
| O=C(CN1C(=O)CCc2ncccc21)Nc1scc(Br)c1-c1ncn[nH]1 | JNK1 (Homo sapiens (Human)) | < 100 nM |
| N#Cc1ccc2c(ccc(=O)n2CC(=O)Nc2scc(Br)c2-c2ncn[nH]2)c1 | JNK1 (Homo sapiens (Human)) | < 100 nM |
| O=C(Cc1cccc2cnccc12)Nc1scnc1-c1cnccn1 | JNK1 (Homo sapiens (Human)) | 100 to 10000 nM |
| CC(C)c1n[nH]c(-c2c(Cl)csc2NC(=O)CN2C(=O)CCc3ncccc32)n1 | JNK1 (Homo sapiens (Human)) | < 100 nM |
| O=C(CN1C(=O)CCc2ccc(Cl)cc21)Nc1scc(Br)c1-c1ncn[nH]1 | JNK1 (Homo sapiens (Human)) | < 100 nM |
| O=C(CN1C(=O)CCc2cnccc21)Nc1ccsc1-c1cscn1 | JNK1 (Homo sapiens (Human)) | 100 to 10000 nM |
| O=C(CN1C(=O)CCc2ccccc21)Nc1ccsc1-c1c[nH]cn1 | JNK1 (Homo sapiens (Human)) | 100 to 10000 nM |
| Cc1csc(NC(=O)Cc2ccc(OCCCN3CCCCC3)cc2)c1-c1ncn[nH]1 | JNK1 (Homo sapiens (Human)) | 100 to 10000 nM |
| Cc1n[nH]c(-c2sccc2NC(=O)Cc2ccc3c(c2)OCCO3)n1 | JNK1 (Homo sapiens (Human)) | 100 to 10000 nM |
| COc1ccc(CC(=O)Nc2ccsc2-c2nc(-c3ccncc3)n[nH]2)cc1 | JNK1 (Homo sapiens (Human)) | 100 to 10000 nM |
| COc1ccc(CC(=O)Nc2ccsc2-c2ncn[nH]2)cc1 | JNK1 (Homo sapiens (Human)) | 100 to 10000 nM |
| O=C(Cn1c(=O)ccc2cnccc21)Nc1ccsc1-c1cscn1 | JNK1 (Homo sapiens (Human)) | < 100 nM |
| O=C(Cc1ccnc2ccccc12)Nc1scc(Br)c1-c1nnc[nH]1 | JNK1 (Homo sapiens (Human)) | < 100 nM |
| O=C(Cc1cccc2cc(F)cnc12)Nc1scc(Br)c1-c1nc[nH]n1 | JNK1 (Homo sapiens (Human)) | < 100 nM |
| N#Cc1csc(NC(=O)Cn2c(=O)ccc3cc(C(F)(F)F)ccc32)c1-c1cscn1 | JNK1 (Homo sapiens (Human)) | < 100 nM |
| C#Cc1ccc2c(ccc(=O)n2CC(=O)Nc2scc(Br)c2-c2ncn[nH]2)c1 | JNK1 (Homo sapiens (Human)) | < 100 nM |
| O=C(CN1C(=O)CCc2ccccc21)Nc1scc(Br)c1-c1ncn[nH]1 | JNK1 (Homo sapiens (Human)) | < 100 nM |
| O=C(Cn1c(=O)ccn2nc(C(F)(F)F)cc12)Nc1scc(Br)c1-c1ncn[nH]1 | JNK1 (Homo sapiens (Human)) | < 100 nM |
| COc1ccc(CC(=O)Nc2ccsc2-c2cn(C)cn2)cc1 | JNK1 (Homo sapiens (Human)) | > 10000 nM |
| O=C(Cn1c(=O)ccc2cnc(C(F)(F)F)cc21)Nc1scc(Br)c1-c1ncn[nH]1 | JNK1 (Homo sapiens (Human)) | < 100 nM |
| O=C(CN1C(=O)CCc2ccc(Br)cc21)Nc1scc(Br)c1-c1ncn[nH]1 | JNK1 (Homo sapiens (Human)) | 100 to 10000 nM |
| Cc1n[nH]c(-c2sccc2NC(=O)Cc2cccc3ccccc23)n1 | JNK1 (Homo sapiens (Human)) | 100 to 10000 nM |
| Cc1csc(NC(=O)Cc2cccc3cnccc23)c1-c1nc2ccccc2s1 | JNK1 (Homo sapiens (Human)) | 100 to 10000 nM |
| Cn1cnc(-c2c(C#N)csc2NC(=O)Cc2cccc3ncccc23)n1 | JNK1 (Homo sapiens (Human)) | < 100 nM |
| N#Cc1csc(NC(=O)Cc2cccc3cnccc23)c1-c1ncn[nH]1 | JNK1 (Homo sapiens (Human)) | < 100 nM |
| N#Cc1csc(NC(=O)Cn2c(=O)ccc3cc(C(F)(F)F)ccc32)c1-n1nnc2ccccc21 | JNK1 (Homo sapiens (Human)) | 100 to 10000 nM |
| Cc1csc(NC(=O)Cc2cccc3nccnc23)c1-c1ncn[nH]1 | JNK1 (Homo sapiens (Human)) | 100 to 10000 nM |
| O=C(Cn1c(=O)ccc2nc(C(F)(F)F)ccc21)Nc1scc(Cl)c1-c1ncn[nH]1 | JNK1 (Homo sapiens (Human)) | < 100 nM |
| O=C(Cc1cccc2cnccc12)Nc1scnc1-c1cscn1 | JNK1 (Homo sapiens (Human)) | < 100 nM |
| O=C(Cn1c(=O)ccc2cc(C(F)(F)F)ccc21)Nc1scc(Cl)c1-c1ncn(CCCN2CCCC2)n1 | JNK1 (Homo sapiens (Human)) | < 100 nM |
| O=C(CN1C(=O)CCc2ncccc21)Nc1scc(Cl)c1-c1nc[nH]n1 | JNK1 (Homo sapiens (Human)) | < 100 nM |
| O=C(Cc1cccc2ccncc12)Nc1scc(Br)c1-c1ncn[nH]1 | JNK1 (Homo sapiens (Human)) | < 100 nM |
| Cc1nc(-c2sccc2NC(=O)Cc2cccc3ccccc23)n(C)n1 | JNK1 (Homo sapiens (Human)) | > 10000 nM |
| Cn1ccc(-c2sccc2NC(=O)Cc2cccc3ccccc23)n1 | JNK1 (Homo sapiens (Human)) | > 10000 nM |

Origin of values: patent US9796706B2
